# experimental.target: EGFR (D746-750/C797S) (Homo sapiens, UniProt P00533, C797S/DEL746-750)
# Sequence (P00533 with tags, fused parts or gaps DEL746-750/C797S): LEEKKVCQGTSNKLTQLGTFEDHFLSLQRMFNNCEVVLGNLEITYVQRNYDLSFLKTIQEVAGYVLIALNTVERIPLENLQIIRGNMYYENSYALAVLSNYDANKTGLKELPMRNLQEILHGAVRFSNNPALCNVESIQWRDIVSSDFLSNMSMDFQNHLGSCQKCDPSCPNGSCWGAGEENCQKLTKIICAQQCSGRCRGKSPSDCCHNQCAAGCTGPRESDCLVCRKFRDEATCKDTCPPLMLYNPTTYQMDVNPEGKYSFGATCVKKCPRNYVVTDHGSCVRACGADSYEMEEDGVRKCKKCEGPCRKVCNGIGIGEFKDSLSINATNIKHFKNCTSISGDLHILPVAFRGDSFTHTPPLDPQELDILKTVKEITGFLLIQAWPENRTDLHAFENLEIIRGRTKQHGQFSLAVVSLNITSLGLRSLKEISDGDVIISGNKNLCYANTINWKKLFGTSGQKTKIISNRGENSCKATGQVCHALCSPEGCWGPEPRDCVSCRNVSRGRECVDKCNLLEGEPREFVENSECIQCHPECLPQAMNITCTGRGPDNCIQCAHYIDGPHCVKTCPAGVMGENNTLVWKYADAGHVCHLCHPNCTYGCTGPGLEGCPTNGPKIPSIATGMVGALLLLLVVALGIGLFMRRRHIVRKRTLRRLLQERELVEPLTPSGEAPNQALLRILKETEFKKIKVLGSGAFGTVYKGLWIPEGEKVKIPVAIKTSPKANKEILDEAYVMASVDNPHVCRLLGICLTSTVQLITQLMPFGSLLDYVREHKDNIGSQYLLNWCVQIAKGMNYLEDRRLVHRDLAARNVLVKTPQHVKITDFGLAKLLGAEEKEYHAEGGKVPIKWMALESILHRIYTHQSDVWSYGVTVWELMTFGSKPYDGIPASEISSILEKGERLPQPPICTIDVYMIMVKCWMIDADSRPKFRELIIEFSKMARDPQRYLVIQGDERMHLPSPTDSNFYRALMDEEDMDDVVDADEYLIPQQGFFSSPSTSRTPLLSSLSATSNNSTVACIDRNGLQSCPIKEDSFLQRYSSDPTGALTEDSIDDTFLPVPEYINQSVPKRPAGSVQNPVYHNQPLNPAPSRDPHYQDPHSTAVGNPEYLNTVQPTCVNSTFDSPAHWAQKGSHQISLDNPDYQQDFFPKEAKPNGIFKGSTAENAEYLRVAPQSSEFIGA
# assay.notes: HotSpot radiometric kinase assay, inhibition of EGFR 746-750/C797S mutant
# protocol.conditions: 33P ATP, room temperature, 120 m
readout.label: IC50 (nM)
Give bare numbers, in nM.

Worked examples, 3 molecules total:
CCOc1nn(CCO)c2c1/C=C/c1n[nH]c3cnc(cc13)-c1c(C)nn(C)c1O[C@H](C)[C@H]1CCCN1C2    0.66
CCOc1nn(CCO)c2c1/C=C/c1n[nH]c3cnc(cc13)-c1cnn(C)c1O[C@H](C)CN(CC)C2    0.49
CCN1Cc2c(c(OCC#N)nn2[C@@H](C)CO)/C=C/c2n[nH]c3cnc(cc23)-c2c(C)nn(C)c2O[C@@H](C)C1    1.65

Lookup: Look at this molecule and give its reported IC50. "CCOc1nn([C@@H](C)CO)c2c1/C=C/c1n[nH]c3cnc(cc13)-c1c(C)nn(C)c1O[C@@H](C)CN(C1CC1)C2"
Found: 0.56

----------
Answer each item with its documented pIC50.
# experimental.target: EGFR (D746-750) (Homo sapiens, UniProt P00533, DEL746-750)
# Sequence (P00533 with tags, fused parts or gaps DEL746-750): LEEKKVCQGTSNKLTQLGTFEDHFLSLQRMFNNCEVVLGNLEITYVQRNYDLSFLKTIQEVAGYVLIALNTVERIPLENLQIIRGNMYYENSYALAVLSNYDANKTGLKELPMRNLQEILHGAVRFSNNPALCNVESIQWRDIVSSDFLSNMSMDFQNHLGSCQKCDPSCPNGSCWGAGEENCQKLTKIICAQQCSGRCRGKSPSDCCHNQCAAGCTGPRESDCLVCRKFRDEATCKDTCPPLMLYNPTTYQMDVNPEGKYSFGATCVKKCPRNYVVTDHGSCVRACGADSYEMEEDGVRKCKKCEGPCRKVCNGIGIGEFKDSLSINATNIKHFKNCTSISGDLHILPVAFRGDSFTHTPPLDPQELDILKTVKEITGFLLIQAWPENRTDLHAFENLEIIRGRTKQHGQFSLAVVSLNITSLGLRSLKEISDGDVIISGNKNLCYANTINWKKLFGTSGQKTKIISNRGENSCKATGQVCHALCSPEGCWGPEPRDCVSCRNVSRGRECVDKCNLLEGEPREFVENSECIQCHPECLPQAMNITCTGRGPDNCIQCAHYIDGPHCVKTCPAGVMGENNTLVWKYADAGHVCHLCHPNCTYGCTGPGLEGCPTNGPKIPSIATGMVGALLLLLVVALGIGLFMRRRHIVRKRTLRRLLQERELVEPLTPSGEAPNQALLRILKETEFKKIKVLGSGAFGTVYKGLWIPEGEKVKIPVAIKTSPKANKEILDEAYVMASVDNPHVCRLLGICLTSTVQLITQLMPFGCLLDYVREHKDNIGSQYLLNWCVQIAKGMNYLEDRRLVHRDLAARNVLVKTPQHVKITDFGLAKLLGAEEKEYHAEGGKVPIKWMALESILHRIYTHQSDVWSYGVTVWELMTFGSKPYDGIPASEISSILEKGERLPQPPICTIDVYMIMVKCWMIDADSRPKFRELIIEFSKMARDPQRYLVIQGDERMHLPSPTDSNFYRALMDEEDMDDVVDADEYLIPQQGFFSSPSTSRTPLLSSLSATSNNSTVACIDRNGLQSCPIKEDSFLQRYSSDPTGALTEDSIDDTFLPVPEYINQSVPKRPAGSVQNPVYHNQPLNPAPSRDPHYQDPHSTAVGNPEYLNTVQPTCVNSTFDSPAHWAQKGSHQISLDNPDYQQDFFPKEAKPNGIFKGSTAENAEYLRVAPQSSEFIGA
# assay.notes: HotSpot radiometric kinase assay, inhibition of EGFR 746-750 mutant
# protocol.conditions: 33P ATP, room temperature, 120 m
Answers are plain numbers, as −log10 of the molar value.

Worked examples, 4 compounds total:
CCOc1nn(CCO)c2c1/C=C/c1n[nH]c3cnc(cc13)-c1cnn(C)c1O[C@H](C)CN(C(C)C)C2    9.24
CCN1Cc2c(c(C)nn2CCO)/C=C/c2n[nH]c3cnc(cc23)-c2c(C)nn(C)c2O[C@@H](C)C1    9.39
CCOc1nn(CCO)c2c1/C=C/c1n[nH]c3c(C)nc(cc13)-c1cnn(C)c1O[C@@H](C)CN(C)C2    9.70
Cc1nn(C)c2c1-c1cc3c(n[nH]c3cn1)/C=C/c1c(OCC#N)nn([C@@H](C)CO)c1CN(C)CCO2    9.80

Lookup: Look at this compound and give its reported pIC50. "Cc1nn(C)c2c1-c1cc3c(n[nH]c3cn1)/C=C/c1c(OCC#N)nn(CCO)c1CN1CCC[C@@H]1CO2"
Found: 10.05

----------
Answer each item with its documented IC50.
# experimental.target: pEGFR, A431 cells (wildtype EGFR) (Homo sapiens)
# Construct: pEGFR (Tyr1068) TR-FRET
# Sequence (P00533 25-1210): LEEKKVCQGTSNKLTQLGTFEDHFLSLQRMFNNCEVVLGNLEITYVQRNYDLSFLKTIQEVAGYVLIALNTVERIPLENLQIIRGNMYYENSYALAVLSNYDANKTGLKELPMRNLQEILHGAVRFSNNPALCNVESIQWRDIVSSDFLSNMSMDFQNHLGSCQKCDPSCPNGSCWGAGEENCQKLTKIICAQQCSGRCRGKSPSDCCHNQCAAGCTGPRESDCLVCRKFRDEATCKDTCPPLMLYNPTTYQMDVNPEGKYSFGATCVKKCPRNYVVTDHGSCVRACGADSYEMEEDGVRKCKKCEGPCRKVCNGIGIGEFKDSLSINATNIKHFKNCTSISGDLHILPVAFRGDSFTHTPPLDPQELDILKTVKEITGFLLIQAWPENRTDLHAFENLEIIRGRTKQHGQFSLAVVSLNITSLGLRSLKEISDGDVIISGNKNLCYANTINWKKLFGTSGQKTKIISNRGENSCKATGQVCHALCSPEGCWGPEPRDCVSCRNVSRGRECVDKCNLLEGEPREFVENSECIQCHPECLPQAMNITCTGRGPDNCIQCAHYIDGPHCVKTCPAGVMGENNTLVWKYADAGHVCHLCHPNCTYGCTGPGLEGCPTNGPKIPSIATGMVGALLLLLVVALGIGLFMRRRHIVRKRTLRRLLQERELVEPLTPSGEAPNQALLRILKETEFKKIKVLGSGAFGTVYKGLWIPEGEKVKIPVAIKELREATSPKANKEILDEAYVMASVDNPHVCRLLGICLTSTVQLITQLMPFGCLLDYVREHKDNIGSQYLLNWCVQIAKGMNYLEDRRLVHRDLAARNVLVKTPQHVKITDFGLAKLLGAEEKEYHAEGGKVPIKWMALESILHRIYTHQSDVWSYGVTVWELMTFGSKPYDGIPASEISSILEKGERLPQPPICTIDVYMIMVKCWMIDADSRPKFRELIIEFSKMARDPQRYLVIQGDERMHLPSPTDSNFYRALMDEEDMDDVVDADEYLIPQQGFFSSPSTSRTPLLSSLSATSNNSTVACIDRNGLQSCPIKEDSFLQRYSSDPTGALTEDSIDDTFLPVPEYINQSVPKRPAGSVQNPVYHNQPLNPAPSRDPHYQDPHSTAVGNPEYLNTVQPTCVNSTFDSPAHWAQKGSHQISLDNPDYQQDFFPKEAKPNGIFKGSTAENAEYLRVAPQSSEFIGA
# assay.notes: Cellular EGFR phosphorylation assay (LANCE Ultra TR-FRET) in A431 cells
# Type: cell-based
# protocol.conditions: 4 hours at 37° C., 40 ng/mL EGF for the final 10 minutes, read-out: A431 pEGFR IC50
# Description: Cellular EGFR Phosphorylation Assays EGFR phosphorylation assays were conducted in NSCLC cells with EGFR activation mutations. […] EGFR phosphorylation was measured using phospho-EGFR (Try1068) LANCE Ultra TR-FRET Detection Kit (TRF4015M) from PerkinElmer according to manufacturer's instructions. […] After 4-6 hours of incubation at room temperature, plates were then read on a TECAN Sparks multimode microplate reader. […]
Give bare numbers, in nM.

Worked examples, 3 compounds total:
CCOc1nn([C@@H](C)CO)c2c1/C=C/c1n[nH]c3c(C)nc(cc13)-c1c(C)nn(C)c1O[C@H](C)CN(C)C2    16.8
CCOc1nn([C@@H](C)CO)c2c1/C=C/c1n[nH]c3cnc(cc13)-c1c(C)nn(C)c1OCCN(C)C2    5.29
CCN1Cc2c(c(C)nn2CCO)/C=C/c2n[nH]c3cnc(cc23)-c2c(C)nn(C)c2O[C@@H](C)C1    12

Please find the next compound below.
Lookup: Checklist item: IC50 tested on pEGFR, A431 cells (wildtype EGFR) (Homo sapiens), entry "CCN1Cc2c(c(C)nn2CCO)/C=C/c2n[nH]c3cnc(cc23)-c2c(C)nn(C)c2O[C@H](C)C1" , value?
Found: 44.7
